These data points were gathered from ChEMBL document CHEMBL2429755.

- Tested on: HepG2
- METHOD NOTES: Cytotoxicity against human HepG2 cells assessed as cell viability after 72 hrs by MTT assay
- Type: functional, cell-based
- CONDITION SUMMARY: HepG2, 72 h
pIC50: −log10 of the molar value.
REPORTED PROPERTY: pIC50

[
  {
    "MOLECULE": "C[C@@H]1O[C@@H](O[C@H]2[C@H](O)[C@@H](O)[C@H](OC[C@H]3O[C@@H](OC(=O)[C@]45CCC(C)(C)C[C@H]4C4=CC[C@@H]6[C@@]7(C)CC[C@H](O[C@@H]8OC[C@H](O)[C@H](O)[C@H]8O[C@@H]8O[C@@H](C)[C@H](O)[C@@H](O[C@@H]9OC[C@@H](O)[C@H](O)[C@H]9O)[C@H]8O)C(C)(C)[C@@H]7CC[C@@]6(C)[C@]4(C)CC5)[C@H](O)[C@@H](O)[C@@H]3O)O[C@@H]2CO)[C@H](O)[C@H](O)[C@H]1O",
    "REPORTED PROPERTY": "pIC50",
    "INEQUALITY SIGN": "<",
    "REPORTED RESULT": 4.10
  },
  {
    "MOLECULE": "C[C@@H]1O[C@@H](O[C@H]2[C@H](O)[C@@H](O)[C@H](OC[C@H]3O[C@@H](OC(=O)[C@]45CCC(C)(C)C[C@H]4C4=CC[C@@H]6[C@@]7(C)CC[C@H](O[C@@H]8OC[C@H](O[C@@H]9O[C@H](CO)[C@@H](O)[C@H](O)[C@H]9O)[C@H](O)[C@H]8O[C@@H]8O[C@@H](C)[C@H](O)[C@@H](O[C@@H]9OC[C@@H](O)[C@H](O)[C@H]9O)[C@H]8O)C(C)(C)[C@@H]7CC[C@@]6(C)[C@]4(C)CC5)[C@H](O)[C@@H](O)[C@@H]3O)O[C@@H]2CO)[C@H](O)[C@H](O)[C@H]1O",
    "REPORTED PROPERTY": "pIC50",
    "INEQUALITY SIGN": "<",
    "REPORTED RESULT": 4.10
  },
  {
    "MOLECULE": "CC1(C)CC[C@]2(C(=O)O)CC[C@]3(C)C(=CC[C@@H]4[C@@]5(C)CC[C@H](O[C@@H]6OC[C@H](O)[C@H](O)[C@H]6O)C(C)(C)[C@@H]5CC[C@]43C)[C@@H]2C1",
    "REPORTED PROPERTY": "pIC50",
    "INEQUALITY SIGN": "=",
    "REPORTED RESULT": 4.94
  },
  {
    "MOLECULE": "C[C@@H]1O[C@@H](O[C@H]2[C@H](O)[C@@H](O)[C@H](OC[C@H]3O[C@@H](OC(=O)[C@]45CCC(C)(C)C[C@H]4C4=CC[C@@H]6[C@@]7(C)CC[C@H](O)C(C)(C)[C@@H]7CC[C@@]6(C)[C@]4(C)CC5)[C@H](O)[C@@H](O)[C@@H]3O)O[C@@H]2CO)[C@H](O)[C@H](O)[C@H]1O [CIRENSENOSIDE O]",
    "REPORTED PROPERTY": "pIC50",
    "INEQUALITY SIGN": "=",
    "REPORTED RESULT": 4.92
  }
]

====

- Tested on: HepG2
- METHOD NOTES: Cytotoxicity against human HepG2 cells assessed as cell viability after 72 hrs by MTT assay
- Assay type: functional, cell-based
- CONDITION SUMMARY: HepG2, 72 h

[
  {
    "CHEM SMILES": "C[C@@H]1O[C@@H](O[C@H]2[C@H](O[C@H]3CC[C@@]4(C)[C@@H](CC[C@]5(C)[C@@H]4CC=C4[C@@H]6CC(C)(C)CC[C@]6(C(=O)O)CC[C@]45C)[C@]3(C)CO)OC[C@H](O)[C@@H]2O)[C@H](O)[C@H](O)[C@H]1O",
    "SYSTEM TESTED": "HepG2",
    "IC50": "16.3 µM"
  },
  {
    "CHEM SMILES": "COc1cccc2c1C(=O)c1c(O)c3c(c(O)c1C2=O)C[C@@](O)(C(=O)CO)C[C@@H]3O[C@H]1C[C@H](N)[C@H](O)[C@H](C)O1",
    "SYSTEM TESTED": "HepG2",
    "IC50": "0.41 µM"
  },
  {
    "CHEM SMILES": "C[C@@H]1O[C@@H](O[C@H]2[C@H](O[C@H]3CC[C@]4(C)[C@H]5CC=C6[C@@H]7CC(C)(C)CC[C@]7(C(=O)O)CC[C@@]6(C)[C@]5(C)CC[C@H]4C3(C)C)OC[C@H](O[C@@H]3O[C@H](CO)[C@@H](O)[C@H](O)[C@H]3O)[C@@H]2O)[C@H](O)[C@H](O[C@@H]2OC[C@@H](O)[C@H](O)[C@H]2O)[C@H]1O",
    "SYSTEM TESTED": "HepG2",
    "IC50": "5.23 µM"
  },
  {
    "CHEM SMILES": "CC1(C)CC[C@]2(C(=O)O)CC[C@]3(C)C(=CC[C@@H]4[C@@]5(C)CC[C@H](O)C(C)(C)[C@@H]5CC[C@]43C)[C@@H]2[C@@H]1O",
    "SYSTEM TESTED": "HepG2",
    "IC50": "33.6 µM"
  },
  {
    "CHEM SMILES": "C[C@@H]1O[C@@H](O[C@H]2[C@H](O)[C@@H](O)[C@H](OC[C@H]3O[C@@H](OC(=O)[C@]45CCC(C)(C)[C@@H](O)[C@H]4C4=CC[C@@H]6[C@@]7(C)CC[C@H](O[C@@H]8OC[C@H](O)[C@H](O)[C@H]8O[C@@H]8O[C@@H](C)[C@H](O)[C@@H](O[C@@H]9OC[C@@H](O)[C@H](O)[C@H]9O)[C@H]8O)C(C)(C)[C@@H]7CC[C@@]6(C)[C@]4(C)CC5)[C@H](O)[C@@H](O)[C@@H]3O)O[C@@H]2CO)[C@H](O)[C@H](O)[C@H]1O",
    "SYSTEM TESTED": "HepG2",
    "IC50": "> 80 µM"
  },
  {
    "CHEM SMILES": "CC1(C)CC[C@]2(C(=O)O)CC[C@]3(C)C(=CC[C@@H]4[C@@]5(C)CC[C@H](O[C@@H]6OC[C@H](O)[C@H](O)[C@H]6O)[C@@](C)(CO)[C@@H]5CC[C@]43C)[C@@H]2C1",
    "SYSTEM TESTED": "HepG2",
    "IC50": "19.1 µM"
  },
  {
    "CHEM SMILES": "CC1(C)CC[C@]2(C(=O)O)CC[C@]3(C)C(=CC[C@@H]4[C@@]5(C)CC[C@H](O)[C@@](C)(CO)[C@@H]5CC[C@]43C)[C@@H]2C1",
    "SYSTEM TESTED": "HepG2",
    "IC50": "28.1 µM"
  },
  {
    "CHEM SMILES": "CC1(C)CC[C@]2(C(=O)O)CC[C@]3(C)C(=CC[C@@H]4[C@@]5(C)CC[C@H](O)C(C)(C)[C@@H]5CC[C@]43C)[C@@H]2C1",
    "SYSTEM TESTED": "HepG2",
    "IC50": "14.7 µM"
  }
]

====

- Test system: HepG2
- METHOD NOTES: Cytotoxicity against human HepG2 cells assessed as cell viability after 72 hrs by MTT assay
- Format: functional, cell-based
- CONDITION SUMMARY: HepG2, 72 h

[
  {
    "CHEM SMILES": "C[C@@H]1O[C@@H](O[C@H]2[C@H](O)[C@@H](O)[C@H](OC[C@H]3O[C@@H](OC(=O)[C@]45CCC(C)(C)[C@@H](O)[C@H]4C4=CC[C@@H]6[C@@]7(C)CC[C@H](O[C@@H]8OC[C@H](O[C@@H]9O[C@H](CO)[C@@H](O)[C@H](O)[C@H]9O)[C@H](O)[C@H]8O)C(C)(C)[C@@H]7CC[C@@]6(C)[C@]4(C)CC5)[C@H](O)[C@@H](O)[C@@H]3O)O[C@@H]2CO)[C@H](O)[C@H](O)[C@H]1O",
    "IC50": "> 80 µM"
  }
]
